Would you kindly list PBM binding z-score for each of these sequences?
Tested on: PPARg:RXRa 270nM:90nM, anti-RXR (NR concentration 270 nM, RXRa partner concentration 90 nM)
method: PBM binding z-score (relative to random genomic background probes); higher = stronger binding; sequences stand for … in GC…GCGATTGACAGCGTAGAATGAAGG

**Q:** Give reported PBM binding z-score value for TCTTGTTGATCAAAGGTTAAGAAAGCCGAAGCCT
**A:** 6.29

**Q:** Give reported PBM binding z-score value for TCGAGTAGGTTAGGGGGGCATTCAGGGATGAAGA
**A:** 4.97

**Q:** Give reported PBM binding z-score value for ATCGAAATGTCGTGAGGTGAGTATACAGAAAGGC
**A:** -0.0357

src = the supplement of paper PMC6555819
